Numbers sourced from PubChem BioAssay (NCI).

# Test system: HOP-62 NSCLC
# test_name: NCI tumour cell line growth inhibition, 48 h
Each entry below lists one item and its recorded TGI value.
measurement_name: TGI

- compound: "COC(=O)C1=CCC2c3[nH]c4ccccc4c3CCN2C1 (configuration not stated)"
  measurement_name: "TGI"
  data_value: "> 354 µM"
- compound: "C=C1CC[C@@H]2[C@](C)(COC(=O)CCC(=O)O)CCC[C@@]2(C)[C@@H]1CCC1=CC(=O)OC1"
  measurement_name: "TGI"
  data_value: "> 100 µM"
- compound: "COc1ccc(/C=C\\c2cc(OC)c(OC)c(OC)c2)c(NS(=O)(=O)c2ccc(F)cc2)c1O"
  measurement_name: "TGI"
  data_value: "> 100 µM"
- compound: "O=c1oc2ccccc2n1P(=O)(Oc1ccc(Cl)cc1)n1c(=O)oc2ccccc21"
  measurement_name: "TGI"
  data_value: "> 100 µM"
- compound: "CC1=CC[C@@H](C(C)(C)O)C[C@@H]1O"
  measurement_name: "TGI"
  data_value: "> 5000 µM"
- compound: "CC(C)C(CCOS(=O)(=O)O)CCC(C)[C@H]1[C@@H](O)C(O)C2[C@]3(O)C[C@@H](O)C4(O)C[C@@H](O)CC[C@]4(C)C3CC[C@@]21C (some centres not stated)"
  measurement_name: "TGI"
  data_value: "> 100 µM"
- compound: "Nc1n[nH]c2ccc([C@@H]3Nc4ccc5cn[nH]c5c4[C@H]4C5CCC(C5)[C@@H]34)cc12 (some centres not stated)"
  measurement_name: "TGI"
  data_value: "> 70 µM"

* * *

Each entry below lists one item and its recorded TGI value.
# Tested on: U251 CNS
# test_name: NCI tumour cell line growth inhibition, 48 h

- molecule: "O=C(NC(OCc1ccccc1)(C(F)(F)F)C(F)(F)F)OCc1ccccc1"
  system: "U251 CNS"
  TGI: "27.1 µM"
- molecule: "C[C@]12CC[C@@H]3c4ccc(OC(=O)N(CCCl)CCCl)cc4CC[C@H]3[C@@H]1CC[C@@H]2OP(=O)(O)O"
  system: "U251 CNS"
  TGI: "> 100 µM"
- molecule: "C=CCOCn1cnc2c(=O)[nH]c(N)nc21"
  system: "U251 CNS"
  TGI: "> 100 µM"
- molecule: "O=C(O)c1ccc(Nc2cnc3cc(C(F)(F)F)ccc3n2)cc1"
  system: "U251 CNS"
  TGI: "> 100 µM"
- molecule: "COc1ccc2nc3cc(Cl)ccc3c(NCCCCCC(=O)NC(COc3ccc4ccc5cccnc5c4n3)COc3ccc4ccc5cccnc5c4n3)c2c1"
  system: "U251 CNS"
  TGI: "26.7 µM"
- molecule: "C[C@@H](c1ccccc1)N1CO[C@@]2(C#Cc3ccc4c(c3)OCO4)CCC[C@@H]12"
  system: "U251 CNS"
  TGI: "28.1 µM"
- molecule: "NC(=O)c1csc(-c2ccc(CO)o2)n1"
  system: "U251 CNS"
  TGI: "> 100 µM"
- molecule: "CCOC(=O)c1cc([N+](=O)[O-])c(Sc2ncnc3nc[nH]c23)c([N+](=O)[O-])c1"
  system: "U251 CNS"
  TGI: "22.8 µM"
- molecule: "C#CCn1c(=O)ccn(/C(=C/C(=O)OCC)C(=O)OCC)c1=O"
  system: "U251 CNS"
  TGI: "35.4 µM"
- molecule: "O=C1c2ccccc2C(=O)N1NC1=NCCN1"
  system: "U251 CNS"
  TGI: "> 100 µM"
- molecule: "COc1ccc(/C=C\\c2cc(OC)c(OC)c(OC)c2)c(NS(=O)(=O)c2ccc(F)cc2)c1O"
  system: "U251 CNS"
  TGI: "> 100 µM"
- molecule: "Cc1cc(-c2cc(OC(=O)c3ccccc3)ccc2Cl)cc2nnc(Nc3ccc(OCCN4CCCC4)cc3)nc12"
  system: "U251 CNS"
  TGI: "3.16 µM"
- molecule: "c1ccc2c(c1)-c1ccccc1C2NC1=NCCO1"
  system: "U251 CNS"
  TGI: "> 100 µM"
- molecule: "COC(=O)c1c2c(cc3c1CC1(C3)Cc3cc4c(c(C(=O)OC)c3C1)CCC4)CCC2"
  system: "U251 CNS"
  TGI: "> 100 µM"
- molecule: "Fc1ccc(Nc2nc3nonc3nc2Nc2ccc(I)cc2)cc1"
  system: "U251 CNS"
  TGI: "10.8 µM"
- molecule: "CC(C)CC1N=C(OCc2ccccc2)OC1=O (configuration not stated)"
  system: "U251 CNS"
  TGI: "> 100 µM"
- molecule: "O=C1c2ccc3c4c(ccc(c24)C(=O)N1CCNCc1ccccc1)C(=O)N(CCNCc1ccccc1)C3=O"
  system: "U251 CNS"
  TGI: "5.42 µM"
- molecule: "Nc1ncnc2c1ccn2-c1cccc(NC(=O)c2ccc(N3CCOCC3)c(C(F)(F)F)c2)c1"
  system: "U251 CNS"
  TGI: "6.44 µM"
- molecule: "C=C1CC[C@@H]2[C@](C)(COC(=O)CCC(=O)O)CCC[C@@]2(C)[C@@H]1CCC1=CC(=O)OC1"
  system: "U251 CNS"
  TGI: "> 100 µM"
- molecule: "Cc1cc(Cl)cc2c1NC(=O)C2(O)C(C(=O)c1ccccc1)c1ccccc1 (configuration not stated)"
  system: "U251 CNS"
  TGI: "> 100 µM"
- molecule: "O=C(CC(=O)N1N=C(N(c2ccccc2)c2ccccc2)CC1c1ccccc1)Nc1cccc(Cl)c1 (configuration not stated)"
  system: "U251 CNS"
  TGI: "> 100 µM"
- molecule: "CC(=O)Nc1ccc(C2=N/C(=C\\c3ccc(Cl)cc3)C(=O)O2)cc1"
  system: "U251 CNS"
  TGI: "> 100 µM"
- molecule: "CCc1ccccc1NC(=O)C(=O)C1C(=O)N(c2ccccc2)N=C1N (configuration not stated)"
  system: "U251 CNS"
  TGI: "> 100 µM"
- molecule: "O=C(Nc1ccc(Cl)cc1)c1cc(S(=O)(=O)N2CCNNC2=O)c(S)cc1Cl"
  system: "U251 CNS"
  TGI: "> 100 µM"
- molecule: "Nc1nc(N)c2c(n1)CCC(S(=O)(=O)c1ccc3ccccc3c1)C2 (configuration not stated)"
  system: "U251 CNS"
  TGI: "> 100 µM"
- molecule: "COC(=O)c1c2c(c(C)[n+]([O-])c1C)C(=O)C(NCc1ccc(O)cc1)=CC2=O"
  system: "U251 CNS"
  TGI: "5.26 µM"
- molecule: "CN1CCc2c(sc3ncn(Nc4ccc(F)cc4)c(=N)c23)C1"
  system: "U251 CNS"
  TGI: "> 100 µM"
- molecule: "O=C(Cc1nc2ccccc2o1)C(=O)Nc1ccc(Cl)cc1Cl"
  system: "U251 CNS"
  TGI: "> 100 µM"
- molecule: "CC(=O)Oc1cc(-c2oc3cc(OC(C)=O)c(C4OC(CO)C(O)C(O)C4O)c(OC(C)=O)c3c(=O)c2O)c(OC(C)=O)cc1O (configuration not stated)"
  system: "U251 CNS"
  TGI: "> 100 µM"
- molecule: "C=C(C)CCC(O)[C@](C)(O)[C@H]1[C@H](O)C[C@@]2(C)[C@@H]3CCc4c(cc(OC5OC(CO)C(O)C(O)C5O)c(O)c4C)C3(C)C(=O)C[C@]12C (some centres not stated)"
  system: "U251 CNS"
  TGI: "> 100 µM"
- molecule: "Cc1ccc(-c2cc(=O)c(=O)[nH][nH]2)cc1"
  system: "U251 CNS"
  TGI: "> 100 µM"
- molecule: "c1ccc(/C(=N/Nc2ccccn2)c2cccnn2)cc1"
  system: "U251 CNS"
  TGI: "> 100 µM"

* * *

Each entry below lists one item and its recorded TGI value.
# Tested on: SK-MEL-5 melanoma
# test_name: NCI tumour cell line growth inhibition, 48 h

- molecule: "Cc1cc(N=Cc2c(CO)cnc(C)c2O)c(N=Cc2c(CO)cnc(C)c2O)cc1C"
  TGI: "> 100 µM"
- molecule: "CCc1ccccc1NC(=O)C(=O)C1C(=O)N(c2ccccc2)N=C1N (stereo not drawn)"
  TGI: "> 100 µM"
- molecule: "O=C1N[C@H](C(=O)O)[C@@H](c2ccc(OCc3ccccc3)cc2)O1"
  TGI: "> 100 µM"

* * *

# System: KM12 colon
# test_name: NCI tumour cell line growth inhibition, 48 h

- compound: "S=C(S)NCCN1CCNCC1"
  result_unit: "µM"
  inequality_sign: ">"
  TGI: 100
- compound: "CC(C)CC1N=C(OCc2ccccc2)OC1=O (centres undefined)"
  result_unit: "µM"
  inequality_sign: ">"
  TGI: 100
- compound: "CC(=O)Nc1ccc(C2=N/C(=C\\c3ccc(Cl)cc3)C(=O)O2)cc1"
  result_unit: "µM"
  inequality_sign: ">"
  TGI: 100
- compound: "S=C1NNC2(C(=S)N1)c1ccccc1-c1ccccc12"
  result_unit: "µM"
  inequality_sign: ">"
  TGI: 10
- compound: "CCN(CC)CC(O)c1cc(-c2ccc(Cl)cc2)nc2c(C)c(Cl)ccc12 (centres undefined)"
  result_unit: "µM"
  inequality_sign: "="
  TGI: 3.14
- compound: "CC(=O)OCC1OC(O[C@H]2C=C[C@@H](C(=O)OCc3ccccc3)n3c(=O)n(-c4ccccc4)c(=O)n32)C(OC(C)=O)C(OC(C)=O)C1OC(C)=O (some centres undefined)"
  result_unit: "µM"
  inequality_sign: "="
  TGI: 12.2
- compound: "CCN(CC)C(=O)CC12CCCCC1=Nc1ccccc12 (centres undefined)"
  result_unit: "µM"
  inequality_sign: ">"
  TGI: 100
- compound: "COC(=O)[C@]12CC[C@@H](C)[C@H](C)[C@@H]1C1=CC[C@@H]3[C@@](C)(CC#N)C4=C(C[C@@]3(C)[C@]1(C)CC2)OC[C@]4(C)C=O"
  result_unit: "µM"
  inequality_sign: "="
  TGI: 62.9
- compound: "CC1=C(C(=O)Nc2ccc(C)cc2)C(c2cccc([N+](=O)[O-])c2)C(C(=O)Nc2ccc(C)cc2)=C(C)N1"
  result_unit: "µM"
  inequality_sign: "="
  TGI: 40.2
